Parameter melting point: see the listing below.

| Compound | melting point |
| --- | --- |
| Cc1ccc(-c2ccccc2-n2c(C)n[nH]c2=O)cc1 | 102 to 104 °C |
| Cc1cccc(C=NN2C(=O)CN(C(c3ccccc3)c3ccccc3)CC2=O)n1 | 161 to 163 °C |
| O=C(O)CCn1c(=S)sc2ccccc21 | 164 to 165 °C |
| O=C1Oc2ccccc2C1(Cc1ccccc1)Cn1cncn1 (stereo not given) | 150 °C |
| CCOCCCN1C=Cc2cc(S(N)(=O)=O)sc2S1(=O)=O | 131 to 132 °C |
| O=C(O)c1ccc(F)cc1NC(=O)c1ccccc1C(=O)O | 187 to 188 °C |
| O=C(O)c1cc(NC(=O)C(CS)Cc2ccccc2)cc(C(F)(F)F)c1 (stereo not given) | 71 to 74 °C |
| Cn1c(=N)c(F)cn(S(=O)(=O)c2ccccc2)c1=O | 144 °C |
| COc1ccc(-c2cc(CN)c(=O)n(Cc3ccc(Cl)cc3)n2)cc1F | 128 to 131 °C |
| CC(C)c1ccc2oc(C=Cc3ccc(C#N)cc3)cc(=O)c2c1 | 189 to 191 °C |
